B1: OR4K15 (parent)
chain: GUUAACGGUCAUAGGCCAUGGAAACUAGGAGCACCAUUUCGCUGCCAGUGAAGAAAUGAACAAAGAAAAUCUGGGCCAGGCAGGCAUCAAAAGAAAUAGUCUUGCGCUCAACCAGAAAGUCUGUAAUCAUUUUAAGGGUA

variants of: B1; test: self-cleavage, relative activity (ratio to wild type); higher = more cleavage; in vitro, sequencing; the parent is a self-cleaving ribozyme
Experimental endpoint: self-cleavage
Please give the numeric answer without any surrounding text.

*Q* Quick check: self-cleavage of U38A G83U ?
*A* 0.84

*Q* And what about the variant U70G U122A ?
*A* 1.34

*Q* And what about the variant A11U A52G ?
*A* 1.25

*Q* And what about the variant U9A U103C ?
*A* 0.49

*Q* And what about the variant U139C A140C ?
*A* 1.42

*Q* And what about the variant G7A A64G ?
*A* 1.18

*Q* And what about the variant U39C C85G ?
*A* 0.99

*Q* And what about the variant A11G U103C ?
*A* 0.95

*Q* And what about the variant U72G A114C ?
*A* 2.51

*Q* And what about the variant A30C A56G ?
*A* 1.27

*Q* And what about the variant U108C C109U ?
*A* 0.01

*Q* And what about the variant G80A A116G ?
*A* 0.03

*Q* And what about the variant C32U A78G ?
*A* 0.53

*Q* And what about the variant A24U A66G ?
*A* 1.66

*Q* And what about the variant A67U C113U ?
*A* 0.42

*Q* And what about the variant A51U A110G ?
*A* 0.23

*Q* And what about the variant A69G A78C ?
*A* 0.36

*Q* And what about the variant G83A A118G ?
*A* 1.41

*Q* And what about the variant A54G U72A ?
*A* 0.19

*Q* And what about the variant A33U U100C ?
*A* 1.84

*Q* And what about the variant U2C A94U ?
*A* 1.48

*Q* And what about the variant U57A A116U ?
*A* 0.15

*Q* And what about the variant U72A A95G ?
*A* 0.36

*Q* And what about the variant A11G U38A ?
*A* 0.86

*Q* And what about the variant C10U A95C ?
*A* 0.6

*Q* And what about the variant A36U A59G ?
*A* 1.26

*Q* And what about the variant U26A C81U ?
*A* 0.19

*Q* And what about the variant A33U C81U ?
*A* 0.27

*Q* And what about the variant A55G U103C ?
*A* 1.06

*Q* And what about the variant C112A A140G ?
*A* 0.02

*Q* And what about the variant A55G U103A ?
*A* 0.46

*Q* And what about the variant A36U A47G ?
*A* 1.03

*Q* And what about the variant G53A A90G ?
*A* 0.74

*Q* And what about the variant A18C U131C ?
*A* 0.73

*Q* And what about the variant A96G A126G ?
*A* 1.01

*Q* And what about the variant A111C A140G ?
*A* 0.01

*Q* And what about the variant C32A A110U ?
*A* 2.04

*Q* And what about the variant A36U U72C ?
*A* 0.32

*Q* And what about the variant A5G A90C ?
*A* 1.08

*Q* And what about the variant U87C A94U ?
*A* 1.37

*Q* And what about the variant U19G A67G ?
*A* 1.1

*Q* And what about the variant U2A U70C ?
*A* 0.67

*Q* And what about the variant A59U A96C ?
*A* 0.81

*Q* And what about the variant U43C A51G ?
*A* 1.14

*Q* And what about the variant A64U A89G ?
*A* 1.6

*Q* And what about the variant C35G A59G ?
*A* 1.58

*Q* And what about the variant U72A U100C ?
*A* 0.4

*Q* And what about the variant A30G A96U ?
*A* 1.72

*Q* And what about the variant U39C C101U ?
*A* 0.46

*Q* And what about the variant A13C A23G ?
*A* 1.36

*Q* And what about the variant C32U A60G ?
*A* 1.38

*Q* And what about the variant A67G U124C ?
*A* 0.87

*Q* And what about the variant U37C A82G ?
*A* 0.69

*Q* And what about the variant U19A A36G ?
*A* 1.19

*Q* And what about the variant A96G A134G ?
*A* 1.81

*Q* And what about the variant A24G A33G ?
*A* 0.85

*Q* And what about the variant A47U U49A ?
*A* 0.97

*Q* And what about the variant A69U A129U ?
*A* 1.23

*Q* And what about the variant A82G U131C ?
*A* 0.45

*Q* And what about the variant A47U U132A ?
*A* 0.51

*Q* And what about the variant A56G A125G ?
*A* 0.51

*Q* And what about the variant U26C A27U ?
*A* 1.2

*Q* And what about the variant A91G U108C ?
*A* 0.02

*Q* And what about the variant A51G A86U ?
*A* 1.56

*Q* And what about the variant A22G G58A ?
*A* 0.55

*Q* And what about the variant A69U A134G ?
*A* 1.82

*Q* And what about the variant A118U U122A ?
*A* 1.08

*Q* And what about the variant A69G A134G ?
*A* 1.17

*Q* And what about the variant C77U ?
*A* 1.54

*Q* And what about the variant G50U A114U ?
*A* 0.08

*Q* And what about the variant A22U C25U ?
*A* 0.77

*Q* And what about the variant A116G U132C ?
*A* 0.54

*Q* And what about the variant A55G A82G ?
*A* 0.83

*Q* And what about the variant U49C A118U ?
*A* 0.62

*Q* And what about the variant C61U U120A ?
*A* 2.02

*Q* And what about the variant G31A U43A ?
*A* 2.08

*Q* And what about the variant G15U A78G ?
*A* 0.14

*Q* And what about the variant A51U U130C ?
*A* 1.62

*Q* And what about the variant U39C A60C ?
*A* 2.05
